B1: glmS ribozyme (parent)
chain: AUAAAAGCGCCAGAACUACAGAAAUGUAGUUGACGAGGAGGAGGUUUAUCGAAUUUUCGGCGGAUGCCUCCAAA

# Variants of: B1
# assay protocol: self-cleavage kobs at 640 uM GlcN6P; higher = faster cleavage; RNA array
# condition details: with glucosamine-6-phosphate
This sample holds only a part of the variants without activity.
value type: self-cleavage kobs at 640 uM GlcN6P (s⁻¹)

variant notation	value type	relation sign	assay value
A14G C70U C71G	self-cleavage kobs at 640 uM GlcN6P	=	0.000185
A48U G59A G66U	self-cleavage kobs at 640 uM GlcN6P	<	1e-05
G7U C10A G29C U57C	self-cleavage kobs at 640 uM GlcN6P	<	1e-05
U54A G62A G66C	self-cleavage kobs at 640 uM GlcN6P	<	1e-05
C10G G40C	self-cleavage kobs at 640 uM GlcN6P	<	1e-05
G32U U54G	self-cleavage kobs at 640 uM GlcN6P	=	0.000164
A15G U56C	self-cleavage kobs at 640 uM GlcN6P	=	0.000805
U30A A48U G62A	self-cleavage kobs at 640 uM GlcN6P	<	1e-05
U31A A33U A48G	self-cleavage kobs at 640 uM GlcN6P	<	1e-05
C16U G32U C58G	self-cleavage kobs at 640 uM GlcN6P	=	0.00017
C58G C71U	self-cleavage kobs at 640 uM GlcN6P	=	4.63e-05

Reference for the values: the supplement of paper PMC7125110
